Source of measurements: patent US20260242478A1

- targetEntity: T1, PSMA Fab (006 PSMA Fab)
- T1 construct: also called Anti-PSMA Fab
- experimentalProtocol: clonal phage ELISA on captured PSMA Fab pre-incubated with PSMA antigen as competitor, anti-M13-HRP detection;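 note: wells blocked with buffer plus PSMA antigen before phage addition, with blocking buffer alone as the no-competitor control, bound phage detected after washing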
Where no end group is shown, it is not given here.
Binning of Phage binding ELISA signal, Anti-PSMA Fab with PSMA antigen into classes: bottom end: < 0.08; midrange: ≥ 0.08 and < 0.09; top end: ≥ 0.09

Record excerpt, results attached:
# binder, cat
rows = [
    ("QEPVCRPAWMCSGF [Phage-3822]", "bottom end"),
    ("LDLSCVPAWMCTGF [Phage-3816]", "top end"),
]

**Q:** Which class does PQIWCVPTWMCAAS (cysteine pairing not given here; also: displayed on phage as fusion to pIII, junction not given here) [Phage-3821] fall in?
**A:** bottom end

**Q:** Which class does PGMVCKPSWMCSHL [Phage-3825] fall in?
**A:** top end
